test system: EHEB cell line; experiment: Hematological cell line viability/apoptosis flow cytometry assay; type: cell-based; settings: EHEB (CLL); 120 h
REPORTED ENDPOINT: EC50 (nM)
// units = nM; emit number, no label

Exercise: What value of EC50 has been recorded for this entry: O=C1CC[C@H](N2C(=O)c3cccc(NCc4ccc(CN5CC(N6CCOCC6)C5)cc4F)c3C2=O)C(=O)N1
Key: 506
